Record form. Attribute: viability at 28.5 h, 10 µM. Fill in for each entry.
test: in vitro; conditions: human, hela cells, % viability
Just the number in %, nothing appended.

Using the record for COc1cccc(C(NC(=O)C2COc3c(cccc3OC)C2)c2ccccc2)c1 (centres unmarked) [CBK285736] , report its viability at 28.5 h, 10 µM. 94.7

Using the record for CCOC(=O)c1cnc2c(C)c(Cl)ccc2c1NCCN(C)C [CBK265965] , report its viability at 28.5 h, 10 µM. 102

Using the record for OC(CNCCc1ccccc1)CN1c2ccccc2Sc2ccccc21 (centres unmarked) [CBK264017G] , report its viability at 28.5 h, 10 µM. 97.6

Using the record for CC(C)(C)NS(=O)(=O)c1ccccc1[N+](=O)[O-] [CBK260932] , report its viability at 28.5 h, 10 µM. 97.8

Using the record for O=C(c1ccc([N+](=O)[O-])cc1)n1nc(-c2cccnc2)nc1NCc1ccc(F)cc1 [CBK268962] , report its viability at 28.5 h, 10 µM. 96.6
